# REPORTED CONDITIONS: in 1-bromopropane, 298.8 K
MEASURED ENDPOINT: solubility (mole fraction)

INSERT INTO measurements (compound_structure_string, experimental_result) VALUES
  ('CCCCCCCCCCCC(=O)O', 0.34);

----------
# REPORTED CONDITIONS: in n-propanol, 287.1 K
MEASURED ENDPOINT: solubility (mole fraction)

INSERT INTO assay_data (compound_structure_string, experimental_result) VALUES
  ('CCCCCCCCCCCC(=O)O', 0.13);

----------
# REPORTED CONDITIONS: in n-hexane, 286.9 K
MEASURED ENDPOINT: solubility (mole fraction)

INSERT INTO measurements (compound_structure_string, measured_endpoint, experimental_result) VALUES
  ('CCCCCCCCCCCC(=O)O', 'solubility (mole fraction)', 0.0736);

----------
# REPORTED CONDITIONS: in n-propanol, 307.4 K
MEASURED ENDPOINT: solubility (mole fraction)

INSERT INTO results (compound_structure_string, experimental_result) VALUES
  ('CCCCCCCCCCCC(=O)O', 0.541);

----------
# REPORTED CONDITIONS: in n-propanol, 306.5 K
MEASURED ENDPOINT: solubility (mole fraction)

INSERT INTO measurements (compound_structure_string, measured_endpoint, experimental_result) VALUES
  ('CCCCCCCCCCCC(=O)O', 'solubility (mole fraction)', 0.509);

----------
# REPORTED CONDITIONS: in n-hexane, 311 K
MEASURED ENDPOINT: solubility (mole fraction)

INSERT INTO results (compound_structure_string, experimental_result) VALUES
  ('CCCCCCCCCCCC(=O)O', 0.711);

----------
# REPORTED CONDITIONS: in isopropanol, 279.2 K
MEASURED ENDPOINT: solubility (mole fraction)

INSERT INTO results (compound_structure_string, measured_endpoint, experimental_result) VALUES
  ('CCCCCCCCCCCC(=O)O', 'solubility (mole fraction)', 0.0797);

----------
# REPORTED CONDITIONS: in n-hexane, 312.5 K
MEASURED ENDPOINT: solubility (mole fraction)

INSERT INTO assay_data (compound_structure_string, experimental_result) VALUES
  ('CCCCCCCCCCCC(=O)O', 0.777);

----------
# REPORTED CONDITIONS: in trichloroethylene, 283.1 K
MEASURED ENDPOINT: solubility (mole fraction)

INSERT INTO results (compound_structure_string, measured_endpoint, experimental_result) VALUES
  ('CCCCCCCCCCCC(=O)O', 'solubility (mole fraction)', 0.157);

----------
# REPORTED CONDITIONS: in 1-bromopropane, 287.8 K
MEASURED ENDPOINT: solubility (mole fraction)

INSERT INTO measurements (compound_structure_string, measured_endpoint, experimental_result) VALUES
  ('CCCCCCCCCCCC(=O)O', 'solubility (mole fraction)', 0.15);

----------
# REPORTED CONDITIONS: in isopropanol, 304.4 K
MEASURED ENDPOINT: solubility (mole fraction)

INSERT INTO results (compound_structure_string, experimental_result) VALUES
  ('CCCCCCCCCCCC(=O)O', 0.458);

----------
# REPORTED CONDITIONS: in 1-bromopropane, 313.8 K
MEASURED ENDPOINT: solubility (mole fraction)

INSERT INTO results (compound_structure_string, experimental_result) VALUES
  ('CCCCCCCCCCCC(=O)O', 0.859);

----------
# REPORTED CONDITIONS: in n-hexane, 283.6 K
MEASURED ENDPOINT: solubility (mole fraction)

INSERT INTO results (compound_structure_string, experimental_result) VALUES
  ('CCCCCCCCCCCC(=O)O', 0.0502);

----------
# REPORTED CONDITIONS: in acetone, 314.4 K
MEASURED ENDPOINT: solubility (mole fraction)

INSERT INTO measurements (compound_structure_string, measured_endpoint, experimental_result) VALUES
  ('CCCCCCCCCCCC(=O)O', 'solubility (mole fraction)', 0.857);

----------
# REPORTED CONDITIONS: in trichloroethylene, 291 K
MEASURED ENDPOINT: solubility (mole fraction)

INSERT INTO assay_data (compound_structure_string, experimental_result) VALUES
  ('CCCCCCCCCCCC(=O)O', 0.258);

----------
# REPORTED CONDITIONS: in 1-bromopropane, 280.6 K
MEASURED ENDPOINT: solubility (mole fraction)

INSERT INTO assay_data (compound_structure_string, measured_endpoint, experimental_result) VALUES
  ('CCCCCCCCCCCC(=O)O', 'solubility (mole fraction)', 0.0756);

----------
# REPORTED CONDITIONS: in n-propanol, 310.7 K
MEASURED ENDPOINT: solubility (mole fraction)

INSERT INTO assay_data (compound_structure_string, measured_endpoint, experimental_result) VALUES
  ('CCCCCCCCCCCC(=O)O', 'solubility (mole fraction)', 0.69);

----------
# REPORTED CONDITIONS: in acetone, 310.9 K
MEASURED ENDPOINT: solubility (mole fraction)

INSERT INTO results (compound_structure_string, experimental_result) VALUES
  ('CCCCCCCCCCCC(=O)O', 0.678);

----------
# REPORTED CONDITIONS: in acetone, 308.1 K
MEASURED ENDPOINT: solubility (mole fraction)

INSERT INTO measurements (compound_structure_string, experimental_result) VALUES
  ('CCCCCCCCCCCC(=O)O', 0.568);

----------
# REPORTED CONDITIONS: in n-propanol, 297.9 K
MEASURED ENDPOINT: solubility (mole fraction)

INSERT INTO measurements (compound_structure_string, experimental_result) VALUES
  ('CCCCCCCCCCCC(=O)O', 0.275);

----------
# REPORTED CONDITIONS: in acetone, 293.1 K
MEASURED ENDPOINT: solubility (mole fraction)

INSERT INTO measurements (compound_structure_string, measured_endpoint, experimental_result) VALUES
  ('CCCCCCCCCCCC(=O)O', 'solubility (mole fraction)', 0.146);

----------
# REPORTED CONDITIONS: in n-hexane, 291.7 K
MEASURED ENDPOINT: solubility (mole fraction)

INSERT INTO assay_data (compound_structure_string, measured_endpoint, experimental_result) VALUES
  ('CCCCCCCCCCCC(=O)O', 'solubility (mole fraction)', 0.134);

----------
# REPORTED CONDITIONS: in trichloroethylene, 301.2 K
MEASURED ENDPOINT: solubility (mole fraction)

INSERT INTO results (compound_structure_string, experimental_result) VALUES
  ('CCCCCCCCCCCC(=O)O', 0.441);

----------
# REPORTED CONDITIONS: in n-hexane, 308 K
MEASURED ENDPOINT: solubility (mole fraction)

INSERT INTO measurements (compound_structure_string, measured_endpoint, experimental_result) VALUES
  ('CCCCCCCCCCCC(=O)O', 'solubility (mole fraction)', 0.593);

----------
# REPORTED CONDITIONS: in 1-bromopropane, 301.4 K
MEASURED ENDPOINT: solubility (mole fraction)

INSERT INTO results (compound_structure_string, experimental_result) VALUES
  ('CCCCCCCCCCCC(=O)O', 0.404);

----------
# REPORTED CONDITIONS: in n-propanol, 304.7 K
MEASURED ENDPOINT: solubility (mole fraction)

INSERT INTO measurements (compound_structure_string, measured_endpoint, experimental_result) VALUES
  ('CCCCCCCCCCCC(=O)O', 'solubility (mole fraction)', 0.44);

----------
# REPORTED CONDITIONS: in isopropanol, 289.1 K
MEASURED ENDPOINT: solubility (mole fraction)

INSERT INTO measurements (compound_structure_string, measured_endpoint, experimental_result) VALUES
  ('CCCCCCCCCCCC(=O)O', 'solubility (mole fraction)', 0.164);

----------
# REPORTED CONDITIONS: in trichloroethylene, 288.4 K
MEASURED ENDPOINT: solubility (mole fraction)

INSERT INTO measurements (compound_structure_string, experimental_result) VALUES
  ('CCCCCCCCCCCC(=O)O', 0.216);

----------
# REPORTED CONDITIONS: in trichloroethylene, 303.3 K
MEASURED ENDPOINT: solubility (mole fraction)

INSERT INTO assay_data (compound_structure_string, measured_endpoint, experimental_result) VALUES
  ('CCCCCCCCCCCC(=O)O', 'solubility (mole fraction)', 0.516);

----------
# REPORTED CONDITIONS: in n-hexane, 303.8 K
MEASURED ENDPOINT: solubility (mole fraction)

INSERT INTO assay_data (compound_structure_string, experimental_result) VALUES
  ('CCCCCCCCCCCC(=O)O', 0.442);
